# Test system: RPMI-8226
# experimentSummary: NCI tumour cell line growth inhibition, 48 h
Where a name gives a salt, the structure may show the parent alone. Calls of active or inactive are those of the source. Cut-off read from the data, not from the text of the source: active = GI50 up to about 1.1 µM and inactive = higher.
Listing of entries alongside the reported GI50.

Known results for compounds:
- compound: "OC1(c2ccccc2)C2CC=CC2C1(c1ccccc1)c1ccccc1 (configuration not stated)"
  reading: "25.6 µM (inactive)"
- compound: "CCNCC(O)c1ccc(N)c([N+](=O)[O-])c1 (configuration not stated)"
  reading: "> 100 µM (inactive)"
- compound: "CC1=NN(c2cccc(Cl)c2)C(=N/c2nc3ccccc3s2)/C1=C\\c1cccs1"
  reading: "13.4 µM (inactive)"
- compound: "CC1(C)Oc2ccccc2N2O[C@@H]3C(=O)N(c4ccccc4)C(=O)[C@@H]3C21c1ccccc1 (some centres not stated)"
  reading: "37.8 µM (inactive)"
- compound: "CSc1c(C#N)c(O)n(-c2ccc(C)cc2)c(=O)c1C#N"
  reading: "> 100 µM (inactive)"

# query: GI50 of entry Cn1cc(C(=O)C2CCCCC2)ccc1=O
> 100 µM (inactive)

Repeat for the following compound: CNNCc1ccc(C(=O)NC(C)C)cc1 [PROCARBAZINE HYDROCHLORIDE]
465 µM (inactive)

----------
Listing of entries alongside the reported GI50.
# Tested on: BT-549
# experimentSummary: NCI tumour cell line growth inhibition, 48 h
Activity calls are given as the source filed them. No stated cut-off is given here; in the data, active = GI50 up to about 1.1 µM and inactive = higher.

Known results for molecules:
- lineNotation: "CCOC(=O)c1c2ccccc2n2c(=O)n(-c3ccc(OC)cc3)nnc12"
  assayedSystem: "BT-549"
  GI50: "26.5 µM (inactive)"
- lineNotation: "COC(=O)c1ccc2cc(O)c(O)cc2c1"
  assayedSystem: "BT-549"
  GI50: "21.2 µM (inactive)"
- lineNotation: "CO/C(=C/C(=O)C(Cl)(Cl)Cl)CC/C(=C\\C(=O)C(Cl)(Cl)Cl)OC"
  assayedSystem: "BT-549"
  GI50: "27.9 µM (inactive)"

# evaluate next
# query: GI50 of entry CCCSc1cc(Cl)c(C)cc1S(=O)(=O)n1ccnc1OCCCN(C)C
> 100 µM (inactive)

----------
# Tested on: DLD-1
# experimentSummary: NCI tumour cell line growth inhibition, 48 h
Where a name gives a salt, the structure may show the parent alone. Activity calls are given as the source filed them. Rule as the data show it: active = GI50 up to about 1.1 µM and inactive = higher.
Listing of entries alongside the reported GI50.

- compound: "CC(=O)O[C@@H]1CC(C)C2CC2C2=C(C(O)OC2O)[C@@H]1C(C)CCC=C(C)C (some centres undefined)"
  assayedSystem: "DLD-1"
  GI50: "32.4 µM (inactive)"
- compound: "CNNCc1ccc(C(=O)NC(C)C)cc1 [PROCARBAZINE HYDROCHLORIDE]"
  assayedSystem: "DLD-1"
  GI50: "> 500 µM (inactive)"
- compound: "CC(C)c1ccccc1NC(=O)CCC(=O)NN"
  assayedSystem: "DLD-1"
  GI50: "> 100 µM (inactive)"
- compound: "CC(C)CCC[C@@H](C)C1CCC2[C@@H]3CC=C4C[C@@H](C(=O)NCC[N+](C)(C)CCCS(=O)(=O)[O-])CC[C@]4(C)C3CC[C@@]21C (some centres undefined)"
  assayedSystem: "DLD-1"
  GI50: "22.4 µM (inactive)"
- compound: "NCCCCNCCCNC(=O)c1nc(-c2csc(CCN)n2)sc1Cl"
  assayedSystem: "DLD-1"
  GI50: "> 100 µM (inactive)"

# query: GI50 of entry NC1=NS(=O)(=O)N=C(N)C1=Cc1ccc([N+](=O)[O-])o1
17.1 µM (inactive)

Repeat for the following compound: O=C1C2=C(c3ccccc31)C(c1ccccc1Cl)NC(S)=N2 (centres undefined)
64.9 µM (inactive)

Repeat for the following compound: CC12CC/C(=N/NC(N)=O)C3C1CCCC32
> 100 µM (inactive)

Repeat for the following compound: COC(=O)/C(C#N)=C1\CCC(OC)N1C (centres undefined)
> 100 µM (inactive)

Repeat for the following compound: COC(=O)c1cc(CC(C)C)c2c(c1)[nH]c1ccccc12
> 100 µM (inactive)

Repeat for the following compound: C[n+]1c2ccccc2c(NC(CCCNC(=N)N)C(=O)O)c2ccccc21 (centres undefined)
> 100 µM (inactive)

Repeat for the following compound: Cn1cc(C(=O)C2CCCCC2)ccc1=O
> 100 µM (inactive)

Repeat for the following compound: Clc1ccc2cccc3c2c1C1OC3c2ccccc21 (centres undefined)
> 100 µM (inactive)

Repeat for the following compound: CC1CC(c2ccc(Cl)c(Cl)c2)=Nc2ccccc2S1 (centres undefined)
> 100 µM (inactive)

Repeat for the following compound: COC(=O)c1oc([N+](=O)[O-])c(-c2ccccc2)c1-c1ccccc1
76.2 µM (inactive)

Where do the numbers come from? From ChEMBL document CHEMBL1201862.
